Assay: total protein half-life in vivo (active degradation + dilution); higher = more stable protein
Details: wild type E. coli NCM3722; growth: N-lim chemostat; doubling time 6 h
Readings of total protein half-life in vivo for the listed sequences
// note: answer is a bare numeric in h

Guide cases for total protein half-life in vivo, answers given:
• MQQVFFQETEFLNSVIDYDHKVETENLCLDIAYGTDKNFLFGCGISIASILKYNEGSRLCFHIFTDYFGDDDRKYFDALALQYKTRIKIYLINGDRLRSLPSTKNWTHAIYFRFVIADYFINKAPKVLYLDADIICQGTIEPLINFSFPDDKVAMVVTEGQADWWEKRAHSLGVAGIAKGYFNSGFLLINTAQWAAQQVSARAIAMLNEPEIIKKITHPDQDVLNMLLADKLIFADIKYNTQFSLNYQLKESFINPVTNDTIFIHYIGPTKPWHDWAWDYPVSQAFMEAKNASPWKNTALLKPNNSNQLRYSAKHMLKKHRYLKGFSNYLFYFIEKIKH = 5.16
• MKLTLKNLSMAIMMSTIVMGSSAMAADSNEKIVIAHRGASGYLPEHTLPAKAMAYAQGADYLEQDLVMTKDDNLVVLHDHYLDRVTDVADRFPDRARKDGRYYAIDFTLDEIKSLKFTEGFDIENGKKVQTYPGRFPMGKSDFRVHTFEEEIEFVQGLNHSTGKNIGIYPEIKAPWFHHQEGKDIAAKTLEVLKKYGYTGKDDKVYLQCFDADELKRIKNELEPKMGMELNLVQLIAYTDWNETQQKQPDGSWVNYNYDWMFKPGAMKQVAEYADGIGPDYHMLIEETSQPGNIKLTGMVQDAQQNKLVVHPYTVRSDKLPEYTPDVNQLYDALYNKAGVNGLFTDFPDKAVKFLNKE = 5.53
• MFKKSVLFATLLSGVMAFSTNADDKIILKHISVSSVSASPTVLEDTIADIARKYNASSWKVTSMRIDNNSTATAVLYK = 3.93
• MEISFTRVALLAAALFFVGCDQKPQPAKTHATEVTVLEGKTMGTFWRASIPGIDAKRSAELKEKIQTQLDADDQLLSTYKKDSALMRFNDSQSLSPWPVSEAMADIVTTSLRIGAKTDGAMDITVGPLVNLWGFGPEQQPVQIPSQEQIDAMKAKTGLQHLTVINQSHQQYLQKDLPDLYVDLSTVGEGYAADHLARLMEQEGISRYLVSVGGALNSRGMNGEGLPWRVAIQKPTDKENAVQAVVDINGHGISTSGSYRNYYELDGKRLSHVIDPQTGRPIEHNLVSVTVIAPTALEADAWDTGLMVLGPEKAKEVVRREGLAVYMITKEGDSFKTWMSPQFKSFLVSEKN [P0AB85] = 6.29

Turning now to a further record.
State, in one line, measured total protein half-life in vivo of MSETAKKVIVGMSGGVDSSVSAWLLQQQGYQVEGLFMKNWEEDDGEEYCTAAADLADAQAVCDKLGIELHTVNFAAEYWDNVFELFLAEYKAGRTPNPDILCNKEIKFKAFLEFAAEDLGADYIATGHYVRRADVDGKSRLLRGLDSNKDQSYFLYTLSHEQIAQSLFPVGELEKPQVRKIAEDLGLVTAKKKDSTGICFIGERKFREFLGRYLPAQPGKIITVDGDEIGEHQGLMYHTLGQRKGLGIGGTKEGTEEPWYVVDKDVENNILVVAQGHEHPRLMSVGLIAQQLHWVDREPFTGTMRCTVKTRYRQTDIPCTVKALDDDRIEVIFDEPVAAVTPGQSAVFYNGEVCLGGGIIEQRLPLPV 4.77
